experiment: Stability in cryopreserved hepatocytes, rat
The compounds listed here are annotated with their Trep Concentration (μM) 30 min.
Field: numeric (µM). Do not append units.

# compound, units.symbol, Trep Concentration (μM) 30 min
rows = [
    ("CCCCCC(CCC1C(O)CC2Cc3c(cccc3OCC(=O)O)CC21)OC(=O)C(C)(C)C (centres unmarked)", "µM", 0.0122),
    ("CCCCCC(CCC1C(O)CC2Cc3c(cccc3OCC(=O)O)CC21)OC(=O)c1ccc(O)cc1 (centres unmarked)", "µM", 0.00403),
    ("CCCCCC(CCC1C(O)CC2Cc3c(cccc3OCC(=O)O)CC21)OCCC (centres unmarked)", "µM", 0.0194),
    ("CCCCCC(CCC1C(O)CC2Cc3c(cccc3OCC(=O)O)CC21)OC(=O)c1ccccc1O (centres unmarked)", "µM", 0.00373),
]

Consider the additional compound presented here.
Lab book: Trep Concentration (μM) 30 min of CCCCCC(CCC1C(O)CC2Cc3c(cccc3OCC(=O)O)CC21)OC(=O)CC (centres unmarked) noted as 0.48

----------
experiment: Stability in liver microsomes, human
I'd appreciate it if you marked entries condition met when Trep Concentration 30 min is lower than 0.07 µM and condition not met when it is not.

Sample answers from the record:
# compound, label.class
data = [
    ("CCCCCC(CCC1C(O)CC2Cc3c(cccc3OCC(=O)O)CC21)OP(=O)(O)O (stereo not drawn) [VI]", "condition met"),
    ("CCCCCC(CCC1C(O)CC2Cc3c(cccc3OCC(=O)O)CC21)OC(=O)C(C)N (stereo not drawn) [XXXI]", "condition not met"),
]

Confirm or reject: Trep Concentration 30 min of CCCCCC(CCC1C(O)CC2Cc3c(cccc3OCC(=O)O)CC21)OC(=O)c1ccccc1O (stereo not drawn) [LXI] lies strictly below 0.07 µM
condition met

Confirm or reject: Trep Concentration 30 min of CCCCCC(CCC1C(O)CC2Cc3c(cccc3OCC(=O)O)CC21)OC(=O)CN (stereo not drawn) [XXX] lies strictly below 0.07 µM
condition not met

Confirm or reject: Trep Concentration 30 min of CCCCCC(CCC1C(O)CC2Cc3c(cccc3OCC(=O)O)CC21)OC(N)=O (stereo not drawn) [XLII] lies strictly below 0.07 µM
condition not met

----------
experiment: Stability in liver microsomes, human
Would you please tag the item criterion met when its Trep Concentration 10 min is 0.3 µM or above, and criterion not met when it is below?

Sample answers from the record:
# compound, label.class
rows = [
    ("CCCCCC(CCC1C(O)CC2Cc3c(cccc3OCC(=O)O)CC21)OC(=O)COc1ccc(O)cc1 (stereo not drawn)", "criterion met"),
    ("CCCCCC(CCC1C(O)CC2Cc3c(cccc3OCC(=O)O)CC21)OC(=O)C(C)N (stereo not drawn)", "criterion not met"),
    ("CCCCCC(CCC1C(O)CC2Cc3c(cccc3OCC(=O)O)CC21)OC(=O)c1ccc(O)c(O)c1 (stereo not drawn)", "criterion not met"),
    ("CCCCCC(O)CCC1C(OC(=O)CCC(=O)O)CC2Cc3c(cccc3OCC(=O)O)CC21 (stereo not drawn)", "criterion not met"),
    ("CCCCCC(CCC1C(O)CC2Cc3c(cccc3OCC(=O)O)CC21)OC(=O)c1ccc(OC(F)(F)F)cc1 (stereo not drawn)", "criterion not met"),
]

Does the reported Trep Concentration 10 min for CCCCCC(CCC1C(O)CC2Cc3c(cccc3OCC(=O)O)CC21)OC(=O)OC(C)C (stereo not drawn) fall at or above the 0.3 µM mark?
criterion met

Does the reported Trep Concentration 10 min for CCCCCC(CCC1C(O)CC2Cc3c(cccc3OCC(=O)O)CC21)OCOC(=O)C(C)(C)C (stereo not drawn) fall at or above the 0.3 µM mark?
criterion met

----------
experiment: Stability in liver microsomes, human
parameter.measured: Trep Concentration 10 min (µM)
Field: numeric (µM). Do not append units.

The cases that follow already have their Trep Concentration 10 min on record.
# compound, units.symbol, Trep Concentration 10 min
measured = [
    ("CCCCCC(CCC1C(OC(=O)CC)CC2Cc3c(cccc3OCC(=O)O)CC21)OC(=O)CC (stereo not shown) [Prodrug LXX, treprostinil dipropionate]", "µM", 0.903),
    ("CCCCCC(CCC1C(O)CC2Cc3c(cccc3OCC(=O)O)CC21)OC(=O)c1ccccc1O (stereo not shown) [LXI]", "µM", 0.0312),
    ("CCCCCC(O)CCC1C(OC)CC2Cc3c(cccc3OCC(=O)O)CC21 (stereo not shown) [LIII]", "µM", 0.0336),
]

Consider the additional compound presented here.
Lab book: Trep Concentration 10 min of CCCCCC(CCC1C(O)CC2Cc3c(cccc3OCC(=O)O)CC21)OCCN1CCOCC1 (stereo not shown) [L] noted as 0.00286

----------
experiment: Stability in liver microsomes, rat
parameter.measured: Treprostinil Concentration 30 min (µM)
Field: numeric (µM). Do not append units.

The cases that follow already have their Treprostinil Concentration 30 min on record.
# molecule, Treprostinil Concentration 30 min, µM
records = [
    ("CCCCCC(CCC1C(O)CC2Cc3c(cccc3OCC(=O)O)CC21)OP(=O)(O)O (stereo not shown) [Prodrug VI]", 0.46),
    ("CCCCCC(CCC1C(O)CC2Cc3c(cccc3OCC(=O)O)CC21)OC(=O)CC (stereo not shown) [Prodrug LV]", 0.525),
    ("CCCCCC(CCC1C(O)CC2Cc3c(cccc3OCC(=O)O)CC21)OC(C)=O (stereo not shown) [Prodrug XLIII]", 0.111),
]

Lab book: Treprostinil Concentration 30 min of CCCCCC(CCC1C(OC(=O)CC)CC2Cc3c(cccc3OCC(=O)O)CC21)OC(=O)CC (stereo not shown) [Prodrug LXX, treprostinil dipropionate] noted as 0.764

----------
details: dog
I'd appreciate it if you marked entries Criterion met when AUC is lower than 0.2 µmol·min/L and Criterion not met when it is not.

Sample answers from the record:
# molecule, label.class
rows = [
    ("CCCCCC(O)CCC1C(OC(=O)CCC(=O)O)CC2Cc3c(cccc3OCC(=O)O)CC21 (stereo not drawn)", "Criterion met"),
    ("CCCCCC(CCC1C(O)CC2Cc3c(cccc3OCC(=O)O)CC21)OCC (stereo not drawn)", "Criterion not met"),
    ("CCCCCC(CCC1C(O)CC2Cc3c(cccc3OCC(=O)O)CC21)OC(=O)N1CCCCC1 (stereo not drawn)", "Criterion met"),
    ("CCCCCC(CCC1C(O)CC2Cc3c(cccc3OCC(=O)O)CC21)OC(=O)C(C)C (stereo not drawn)", "Criterion not met"),
    ("CCCCCC(CCC1C(O)CC2Cc3c(cccc3OCC(=O)O)CC21)OP(=O)(O)O (stereo not drawn)", "Criterion not met"),
]

Confirm or reject: AUC of CCCCCC(CCC1C(O)CC2Cc3c(cccc3OCC(=O)O)CC21)OC (stereo not drawn) lies strictly below 0.2 µmol·min/L
Criterion not met

----------
experiment: Stability in liver microsomes, dog
parameter.measured: Treprostinil Concentration 0 min (µM)
Field: numeric (µM). Do not append units.

Lab book: Treprostinil Concentration 0 min of CCCCCC(CCC1C(O)CC2Cc3c(cccc3OCC(=O)O)CC21)OP(=O)(O)O (stereo not shown) [Prodrug VI] noted as 0.21

Lab book: Treprostinil Concentration 0 min of CCCCCC(CCC1C(O)CC2Cc3c(cccc3OCC(=O)O)CC21)OC(=O)CC (stereo not shown) [Prodrug LV] noted as 0.971

Lab book: Treprostinil Concentration 0 min of CCCCCC(CCC1C(O)CC2Cc3c(cccc3OCC(=O)O)CC21)OC(C)=O (stereo not shown) [Prodrug XLIII] noted as 0.964

Lab book: Treprostinil Concentration 0 min of CCCCCC(CCC1C(OC(=O)CC)CC2Cc3c(cccc3OCC(=O)O)CC21)OC(=O)CC (stereo not shown) [Prodrug LXX, treprostinil dipropionate] noted as 1.24

----------
experiment: Stability in cryopreserved hepatocytes, dog
details: dog
parameter.measured: Mono AUC (treprostinil formed) (µmol·min/L)
Field: numeric (µmol·min/L). Do not append units.

Lab book: Mono AUC (treprostinil formed) of CCCCCC(CCC1C(O)CC2Cc3c(cccc3OCC(=O)O)CC21)OC(=O)OC (stereo not drawn) [Prodrug IV] noted as 48.0

Lab book: Mono AUC (treprostinil formed) of CCCCCC(CCC1C(O)CC2Cc3c(cccc3OCC(=O)O)CC21)OP(=O)(O)O (stereo not drawn) [Prodrug VI] noted as 62.9

Lab book: Mono AUC (treprostinil formed) of CCCCCC(CCC1C(OC(=O)OC)CC2Cc3c(cccc3OCC(=O)O)CC21)OC(=O)OC (stereo not drawn) [Prodrug LXXI, treprostinil dicarbonate] noted as 41.5

Lab book: Mono AUC (treprostinil formed) of CCCCCC(CCC1C(O)CC2Cc3c(cccc3OCC(=O)O)CC21)OC(C)=O (stereo not drawn) [Prodrug XLIII] noted as 54.0

Lab book: Mono AUC (treprostinil formed) of CCCCCC(CCC1C(OC(=O)CC)CC2Cc3c(cccc3OCC(=O)O)CC21)OC(=O)CC (stereo not drawn) [Prodrug LXX, treprostinil dipropionate] noted as 61.5

Lab book: Mono AUC (treprostinil formed) of CCCCCC(CCC1C(O)CC2Cc3c(cccc3OCC(=O)O)CC21)OC(=O)CC (stereo not drawn) [Prodrug LV] noted as 71.2
